The reported measurements were obtained from patent US20230090901A1.

target: L2 (DV1-GV2), soluble leucine zipper γδ TCR heterodimer of a delta variable 1 chain and a gamma variable 2 … (human); test: DELFIA ELISA, coated antigen;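 further: binding of antibody supernatants or protein-A purified antibodies to plate-coated antigen (3 µg/ml recombinant TCR or BSA), 1 h incubation at room temperature, DELFIA readout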
Sequence (chain, as listed by the source mutant, chain 1 of 2): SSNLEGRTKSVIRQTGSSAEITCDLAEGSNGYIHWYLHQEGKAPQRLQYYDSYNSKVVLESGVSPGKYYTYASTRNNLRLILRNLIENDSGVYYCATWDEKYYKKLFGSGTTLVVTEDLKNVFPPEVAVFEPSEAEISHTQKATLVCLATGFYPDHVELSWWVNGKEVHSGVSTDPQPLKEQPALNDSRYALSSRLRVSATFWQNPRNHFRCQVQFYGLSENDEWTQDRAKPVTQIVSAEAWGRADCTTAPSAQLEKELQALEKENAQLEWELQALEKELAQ
Sequence (chain, as listed by the source mutant, chain 2 of 2): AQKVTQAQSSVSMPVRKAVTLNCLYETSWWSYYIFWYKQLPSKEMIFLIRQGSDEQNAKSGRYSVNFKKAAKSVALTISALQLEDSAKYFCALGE
In this section we review reported DELFIA ELISA response (FU) values for a set of binders.
endpoint: DELFIA ELISA response (FU)

- G4_19 (antibody, human IgG1, V domains shown, also called clone G4_19) VH: EVQLVQSGAEVKKPGASVKVSCKASGYTLTSYYMHWVRQAPGQGLEWMGIINPSGGSTSYAQKFQGRVTMTRDTSTSTVYMELSSLRSEDTAVYYCARERGYSYGDGMDVWGQGTTVTVSS VL: SNFMLTQPHSVSESPGKTVTISCTRSSGSIASNYVQWYQQRPGSPPITLIYDDDQRPSGVPHRFSGSIDTSSNPASLTISGLKTEDEADYYCQSYDSSNHVVFGGGTKLTVLG: 73
- G4_2 (antibody, human IgG1, V domains shown, also called clone G4_2) VH: QMQLVQSGAEVKKPGATVKISCKVSGYPFTDYYIHWVQQAPGKGLEWMGLVDPEDGQSRSAERFQGRVTITADTSTDTAYMELSSLRSEDTAVYYCATFPVAGFYGMDVWGQGTLVTVSS VL: DIQMTQSPSSLSASVGDRVTITCQASQDISNYLNWYQQKPGKAPKLLIYAASSLQSGVPSRFSGSGSGTDFTLTISGLQPEDFATYYCLEDYNYLWTFGQGTKLEIKR: 86
- G4_13 (antibody, human IgG1, V domains shown, also called clone G4_13) VH: QVQLVESGAEVKKPGGSLRLSCAASGFTFSSYSMNWVRQAPGKGLEWVSSISGTSSYIYYADSVKGRFTISRDNAKNSLYLQMSSLRAEDTAVYYCARGGLGMVDPWGQGTLVTVSS VL: SNFMLTQPHSVSESPGKTVTISCTRSSGSIASNYVQWYQQRPGSSPSTVIYEDNQRPSGVPDRFSGSIDSSSNSASLTISGLRTEDEADYYCQSYDSSIYVVFGGGTKLTVLG: 94
